- System: DU-145 cells
- method: Growth inhibiting effect in bFGF-added system using DU-145 cells (tritium-labeled thymidine uptake)
- Type: cell-based
- test-parameters: Homo sapiens, 96 h; DU-145 cells, bFGF 1 ng/ml, 4 days; read-out: IC50
pIC50: −log10 of the molar value.

molecule	pIC50
C[C@]12CC[C@@H]3c4ccc(OCc5ccccc5)cc4CC[C@H]3[C@@H]1CC[C@@H]2OCCO [II-1]	5.54
